target: FXR (Homo sapiens (Human), UniProt Q96RI1); experiment: transient human FXR/Gal4-luciferase reporter assay; format: cell-based; conditions: Gal4-hFXR fusion construct, HEK293 reporter cells; response relative to 8 μM GW-4064
Sequence (Q96RI1 262-486): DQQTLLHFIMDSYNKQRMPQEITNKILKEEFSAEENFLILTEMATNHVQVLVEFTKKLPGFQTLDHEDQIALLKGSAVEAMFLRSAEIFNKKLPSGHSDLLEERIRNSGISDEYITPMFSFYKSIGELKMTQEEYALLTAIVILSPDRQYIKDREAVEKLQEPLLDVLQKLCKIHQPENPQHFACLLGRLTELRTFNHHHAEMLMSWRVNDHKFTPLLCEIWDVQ
pEC50: −log10 of the molar value.
pEC50 vs 7: at or above is fulfilled, below is not fulfilled.

Below, 5 compounds whose answers are already recorded.
1. CC(C)(O)c1ccc(-c2cccc(N(CC34CCC(c5noc(C(C)(C)F)n5)(CC3)CC4)C(=O)N3CC4(C3)CS(=O)(=O)C4)c2)cc1 : not fulfilled
2. Cc1nc2ccc(-c3cccc(N(CC45CCC(c6ccc(C7(C#N)CC7)cc6)(CC4)OC5)C(=O)C45CC(F)(C4)C5)c3)cc2s1 : not fulfilled
3. Cc1nc2cc(-c3cccc(N(CC45CCC(c6nc(C7CC7)no6)(CC4)CC5)C(=O)C45CC(F)(C4)C5)c3)ccc2o1 : not fulfilled
4. Cc1ccc(-c2cccc(N(CC34CCC(c5nc(C6CC6)no5)(CC3)CC4)C(=O)C34CC(F)(C3)C4)c2)nc1 : fulfilled
5. O=C(N(CC12CCC(c3nc(C4CC4)no3)(CC1)CC2)c1cccc(-c2cc(Br)cn3ncnc23)c1)C12CC(F)(C1)C2 : not fulfilled

Attention now turns to another entry.
Textbook exercise: given the entry "CC(C)c1cc(C23CCC(CN(C(=O)OC(C)(C)C(F)(F)F)c4cc(-c5ccc(C(C)(C)O)cc5)ccn4)(CC2)CC3)n(C)n1" , state whether its pEC50 is greater than or equal to 7.
fulfilled
